Consider the following compounds and their measured 384-well COUNTERSCREEN Efficacy (%) readings.
TEST_SYSTEM: GST-CIB1 : F-scrambled peptide (Homo sapiens, UniProt Q99828)
Construct: made in house; host or cells: BL-21 plus RIL cells (E. coli)
Sequence (Q99828 whole entry): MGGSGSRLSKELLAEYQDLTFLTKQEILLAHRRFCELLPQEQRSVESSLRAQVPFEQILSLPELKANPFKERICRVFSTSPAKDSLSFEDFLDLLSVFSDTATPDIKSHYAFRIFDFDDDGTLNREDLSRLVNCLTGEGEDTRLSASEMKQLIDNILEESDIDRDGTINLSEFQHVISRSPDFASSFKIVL
METHOD_NOTES: FP scrambled-peptide counter screen, 384-well format
Assay type: binding
EXPERIMENTAL_CONTEXT: F-scrambled peptide
MEASURED_ENDPOINT: 384-well COUNTERSCREEN Efficacy (%)

INSERT INTO measurements (record_smiles, measurement_units, recorded_number) VALUES
  ('O=C1C(I)=CC(=C(c2cc(I)c([O-])c(I)c2)c2ccccc2C(=O)[O-])C=C1I.[Na+].[Na+]', '%', 105),
  ('CC(C)=CCC[C@]1(C)C=Cc2c(O)c3c(c(CC=C(C)C)c2O1)O[C@]12C(=C[C@@H]4CC1C(C)(C)O[C@@]2(C/C=C(/C)C(=O)O)C4=O)C3=O', '%', 40),
  ('O=[N+]([O-])c1cnc(Sc2nnc(O)n2-c2ccc3c(c2)OCCO3)s1', '%', 89),
  ('COc1cccc(-n2c(SCc3cc(=O)oc4cc(O)c(O)cc34)nc3ccccc3c2=O)c1.O=C(O)C(F)(F)F', '%', 38),
  ('CC(=O)N1CCN(c2ccc(OCc3nn(C)c(C)c3-c3cccc4c(CCCOc5cccc6ccccc56)c(C(=O)O)n(Cc5cccnc5)c34)cc2)CC1', '%', 15);

====

Consider the following compounds and their measured Curve Class (counterscreen) readings.
TEST_SYSTEM: GST-CIB1 : F-scrambled peptide (Homo sapiens)
Construct: made in house; host or cells: BL-21 plus RIL cells (E. coli)
METHOD_NOTES: FP scrambled-peptide counter screen, 1536-well format
Type: binding
EXPERIMENTAL_CONTEXT: counterscreen, qHTS curve class; negative sign = inhibitory curve
MEASURED_ENDPOINT: Curve Class (counterscreen)

INSERT INTO assay_data (compound, test_system, recorded_number) VALUES
  ('Cc1coc2c1C(=O)C(=O)c1c-2ccc2c(C)cccc12', 'GST-CIB1 : F-scrambled peptide (Homo sapiens)', -2.2),
  ('CCOC(=O)c1cc(-c2ccco2)nc2c1c(C)nn2CCC#N.O=C(O)C(F)(F)F', 'GST-CIB1 : F-scrambled peptide (Homo sapiens)', -2.4),
  ('Cl.O=[N+]([O-])c1ccc(CNc2ccc(S(=O)(=O)Nc3nccs3)cc2)c(O)c1', 'GST-CIB1 : F-scrambled peptide (Homo sapiens)', -2.2),
  ('O=C(O)C(F)(F)F.Oc1cccc2c(-c3nnn[nH]3)ccnc12', 'GST-CIB1 : F-scrambled peptide (Homo sapiens)', 4),
  ('Cc1cc2nc3ccc(N(C)C)cc3[s+]c2cc1N.Cl.[Cl-]', 'GST-CIB1 : F-scrambled peptide (Homo sapiens)', -2.2),
  ('O=C(O)c1cc(O)c2c(c1)C(=O)c1cccc(O)c1C2=O', 'GST-CIB1 : F-scrambled peptide (Homo sapiens)', -1.2),
  ('N#Cc1ccc(NS(=O)(=O)c2ccc(Nc3nc(-c4ccccc4)cs3)cc2)cc1.O=C(O)C(F)(F)F', 'GST-CIB1 : F-scrambled peptide (Homo sapiens)', -2.2),
  ('COP(=S)(OC)SCN1C(=O)c2ccccc2C1=O', 'GST-CIB1 : F-scrambled peptide (Homo sapiens)', -2.4),
  ('Cc1ccc(C)n1-c1sccc1C(=O)O', 'GST-CIB1 : F-scrambled peptide (Homo sapiens)', -1.2),
  ('C=C1C(=O)O[C@@H]2[C@H]3C(C)=CC(=O)C3=C(C)[C@@H](OC(=O)/C(C)=C\C)[C@H](O)[C@@H]12', 'GST-CIB1 : F-scrambled peptide (Homo sapiens)', -1.2),
  ('CCOC(=O)C1CCN(C(=O)C(C)(C)NC(=O)Nc2ccc(C#N)cc2)CC1.O=C(O)C(F)(F)F', 'GST-CIB1 : F-scrambled peptide (Homo sapiens)', -1.4),
  ('Cc1ccc(C(=O)c2no[n+]([O-])c2C(=O)c2ccc(C)cc2)cc1.O=C(O)C(F)(F)F', 'GST-CIB1 : F-scrambled peptide (Homo sapiens)', -1.2),
  ('CC(C)C(=O)OCc1ccc(-c2nn(Cc3ccccc3)c3ccccc23)o1', 'GST-CIB1 : F-scrambled peptide (Homo sapiens)', 4),
  ('Cc1cccc(C(=O)c2no[n+]([O-])c2C(=O)c2cccc(C)c2)c1.O=C(O)C(F)(F)F', 'GST-CIB1 : F-scrambled peptide (Homo sapiens)', -1.2),
  ('Oc1ccc(Cl)cc1Cc1cc(Cl)ccc1O', 'GST-CIB1 : F-scrambled peptide (Homo sapiens)', -1.2),
  ('CC(=O)NC(Cc1c[nH]c2ccccc(=O)c12)C(=O)O (stereo not shown)', 'GST-CIB1 : F-scrambled peptide (Homo sapiens)', -2.2),
  ('Cc1ccc(CNc2ncnc3ccc(-c4ccc([C@@H](C)O)o4)cc23)o1', 'GST-CIB1 : F-scrambled peptide (Homo sapiens)', -2.2),
  ('Cc1cc2c(C(C)C)c(O)c(O)c(C=O)c2c(O)c1-c1c(C)cc2c(C(C)C)c(O)c(O)c(C=O)c2c1O', 'GST-CIB1 : F-scrambled peptide (Homo sapiens)', -1.2),
  ('O=c1[nH]c(=O)c2nc3ccccc3nc2[nH]1', 'GST-CIB1 : F-scrambled peptide (Homo sapiens)', -2.2),
  ('CCNC(=O)c1ccc(-c2ccc3ncnc(N4CCOCC4)c3c2)o1.O=C(O)C(F)(F)F', 'GST-CIB1 : F-scrambled peptide (Homo sapiens)', -2.2),
  ('O=C(O)c1cnn(-c2nc3cc(Cl)c(OC(F)(F)F)cc3[nH]2)c1', 'GST-CIB1 : F-scrambled peptide (Homo sapiens)', 4),
  ('Nc1nc2c(s1)C(c1ccc(F)cc1F)CC(=O)N2 (stereo not shown)', 'GST-CIB1 : F-scrambled peptide (Homo sapiens)', 4),
  ('Cn1c(NC2=NC3(CCCC3)C3=C(CCCC3=O)N2)nc2ccccc21.O=C(O)C(F)(F)F', 'GST-CIB1 : F-scrambled peptide (Homo sapiens)', 4),
  ('CNc1ccc(C(=O)Oc2cc(ON=[N+]([O-])N(C)C)c([N+](=O)[O-])cc2[N+](=O)[O-])cc1', 'GST-CIB1 : F-scrambled peptide (Homo sapiens)', -2.2),
  ('COc1cccc2nc(-c3cccs3)nc(NN3C(=O)C=C(C)C3=O)c12', 'GST-CIB1 : F-scrambled peptide (Homo sapiens)', -1.4),
  ('O=c1c(O)c(-c2ccc(O)c(O)c2)oc2cc(O)cc(O)c12', 'GST-CIB1 : F-scrambled peptide (Homo sapiens)', 4),
  ('CC[C@@H](CO)NC(=O)[C@@H]1C=C2c3cccc4c3c(cn4C)C[C@H]2N(C)C1.O=C(O)/C=C\C(=O)O', 'GST-CIB1 : F-scrambled peptide (Homo sapiens)', -3),
  ('Oc1ccc(-c2nnn[nH]2)c2cccnc12', 'GST-CIB1 : F-scrambled peptide (Homo sapiens)', -1.4);
